Cited source: ChEMBL document CHEMBL5058577

Tested on: Fibroblast
procedureText: Multiplex assay against human fibroblast
Assay type: toxicity, cell-based
runParameters: 48 h, 1 µM, compound concentration 1 uM, replicate 2
Measured Population Healthy Nuclei (%), listed per entry for reference.
Quick note: give the figure in %, leave out the unit.

Check the records and state Population Healthy Nuclei (%) for `Cc1ccc(/C(=C\CN2CCCC2)c2ccccn2)cc1`
48

Fill in Population Healthy Nuclei (%) for record `CC[C@H]1OC(=O)[C@H](C)[C@@H](O[C@H]2C[C@@](C)(OC)[C@@H](O)[C@H](C)O2)[C@H](C)[C@@H](O[C@@H]2O[C@H](C)C[C@H](N(C)C)[C@H]2O)[C@@]2(C)CC(C)=C(O2)[C@H](C)[C@@H](O)[C@]1(C)O`
54

For the compound `C[C@H](NC(=O)c1c(C(F)F)nn(C)c1Oc1cccc(C(F)(F)F)c1)c1ccc(C(=O)O)cc1` , report Population Healthy Nuclei (%).
50

Read the entry `CCCn1c(=O)c2[nH]c(C3CCCC3)nc2n(CCC)c1=O` and write its reported Population Healthy Nuclei (%).
48

Return the recorded Population Healthy Nuclei (%) value; entry: CSc1ccccc1N1CCN(CCCCCC(=O)NC2CCCc3ccccc32)CC1.Cl (stereo not given)
45
